// provenance: patent US3956312A

method description: antidepressant activity, inhibition of tetrabenazine ptosis
Format: in vivo, mice
experimental parameters: mouse, in vivo; Table 4, antidepressant activity, mice, oral; read-out: Therapeutical index
Counter-ions that a name gives are not always drawn.
Parameter selectivity ratio: see the listing below.
Give only the figure.

| compound | selectivity ratio |
| --- | --- |
| COc1cc2[nH]nc(C(=O)NNCc3ccccc3)c2cc1OC | 14.3 |

Ask: Provide selectivity ratio value for the following compound: CN(C)CCC=C1c2ccccc2CCc2ccccc21 [amitryptiline, hydrochloride, reference compound]
Result: 17.3

Ask: Provide selectivity ratio value for the following compound: COc1cc2[nH]nc(C(=O)NNCc3ccccc3O)c2cc1OC
Result: 136

Ask: Provide selectivity ratio value for the following compound: COc1cc2[nH]nc(C(=O)NNC(C)c3ccc([N+](=O)[O-])cc3)c2cc1OC (stereo not shown)
Result: 17.9

---

method description: toxicity LD50 listed with the antidepressant activity (Table 4)
experimental parameters: mouse, in vivo; Table 4
Structures can show the parent of a compound that is named as a salt.
parameter measured: LD50 (mg/kg)
Respond with the bare value in mg/kg.

| molecule | LD50 [mg/kg] |
| --- | --- |
| COc1cc2[nH]nc(C(=O)NNCc3ccccc3)c2cc1OC | 2000 |

Ask: Provide LD50 value for the following molecule: CN(C)CCC=C1c2ccccc2CCc2ccccc21 [amitryptiline, hydrochloride, reference compound]
Result: 225

---

Parameter selectivity ratio: see the listing below.
method description: spasmolytic effect in vivo, carbon suspension method of Stickney
experimental parameters: mouse, in vivo, ip; Table 1, spasmolytic effect, white mice, intraperitoneal; read-out: Therapeutical index LD50/ED50
Give only the figure.

| compound | selectivity ratio |
| --- | --- |
| COc1cc2[nH]nc(C(=O)NNC3CCCCCC3)c2cc1OC | 4.3 |
| COc1cc2[nH]nc(C(=O)NNCc3ccccc3O)c2cc1OC | 120 |
| COc1cc2[nH]nc(C(=O)NNC(C)c3ccc([N+](=O)[O-])cc3)c2cc1OC (stereo not drawn) | 2000 |
| COc1cc2[nH]nc(C(=O)NNC(C)C)c2cc1OC | 20 |
| COc1ccc(CC(C)NNC(=O)c2n[nH]c3cc(OC)c(OC)cc23)cc1OC (stereo not drawn) | 310 |

# next compound below
Ask: Provide selectivity ratio value for the following compound: COc1ccc(Cc2nccc3cc(OC)c(OC)cc23)cc1OC [papaverine, reference compound]
Result: 2.9

---

Parameter ED50: see the listing below.
Tested on: small intestines
method description: spasmolytic effect in vivo, carbon suspension method of Stickney
experimental parameters: Mus musculus, ip; white mice, intraperitoneal, Litchfield-Wilcoxon
Respond with the bare value in mg/kg.

| compound | ED50 / mg/kg |
| --- | --- |
| COc1cc2[nH]nc(C(=O)NNC(C)c3ccc([N+](=O)[O-])cc3)c2cc1OC (stereo not drawn) | 2.5 |

Ask: Provide ED50 value for the following compound: COc1ccc(Cc2nccc3cc(OC)c(OC)cc23)cc1OC [papaverine, reference compound]
Result: 46

Ask: Provide ED50 value for the following compound: COc1ccc(CC(C)NNC(=O)c2n[nH]c3cc(OC)c(OC)cc23)cc1OC (stereo not drawn)
Result: 8.7

Ask: Provide ED50 value for the following compound: COc1cc2[nH]nc(C(=O)NNC(C)C)c2cc1OC
Result: 36

Ask: Provide ED50 value for the following compound: COc1cc2[nH]nc(C(=O)NNCc3ccccc3O)c2cc1OC
Result: 25

Ask: Provide ED50 value for the following compound: COc1cc2[nH]nc(C(=O)NNC3CCCCCC3)c2cc1OC
Result: 280
